The reported numbers originate from the Human Domainome abundance scans (Beltran et al. 2025).

B1: Gamma-crystallin S, residues 96 to 176; numbered along this chain, P22914 (parent)
chain: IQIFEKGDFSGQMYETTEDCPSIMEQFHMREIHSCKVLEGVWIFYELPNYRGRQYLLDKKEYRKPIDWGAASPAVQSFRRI

Variants of: B1
Assay: abundance fitness (aPCA) (normalised: wild type 0, dead -1); higher = more abundant; growth selection in yeast, the domain comes from the species named
Settings: Homo sapiens
Parameter threshold = -0.02. Response is yes (1) when abundance fitness meets or exceeds it, else no (0).

{"mutation-annotation": "G52M", "assigned-label": "no (0)"}
{"mutation-annotation": "F44K", "assigned-label": "no (0)"}
{"mutation-annotation": "V75D", "assigned-label": "no (0)"}
{"mutation-annotation": "N49A", "assigned-label": "yes (1)"}
{"mutation-annotation": "R30V", "assigned-label": "no (0)"}
{"mutation-annotation": "G40K", "assigned-label": "no (0)"}
{"mutation-annotation": "C20Y", "assigned-label": "no (0)"}
{"mutation-annotation": "M13A", "assigned-label": "yes (1)"}
{"mutation-annotation": "D8I", "assigned-label": "yes (1)"}
{"mutation-annotation": "P48V", "assigned-label": "no (0)"}
{"mutation-annotation": "R53K", "assigned-label": "yes (1)"}
{"mutation-annotation": "S34H", "assigned-label": "no (0)"}
{"mutation-annotation": "K36E", "assigned-label": "no (0)"}
{"mutation-annotation": "P65E", "assigned-label": "yes (1)"}
{"mutation-annotation": "L38K", "assigned-label": "yes (1)"}
{"mutation-annotation": "Q26E", "assigned-label": "yes (1)"}
{"mutation-annotation": "E18I", "assigned-label": "yes (1)"}
{"mutation-annotation": "R51T", "assigned-label": "yes (1)"}
{"mutation-annotation": "R79G", "assigned-label": "no (0)"}
{"mutation-annotation": "H28G", "assigned-label": "yes (1)"}
{"mutation-annotation": "Y45E", "assigned-label": "no (0)"}
{"mutation-annotation": "E39Q", "assigned-label": "no (0)"}
{"mutation-annotation": "V37G", "assigned-label": "no (0)"}
{"mutation-annotation": "M24R", "assigned-label": "yes (1)"}
{"mutation-annotation": "E5D", "assigned-label": "no (0)"}
{"mutation-annotation": "F44I", "assigned-label": "no (0)"}
{"mutation-annotation": "W42T", "assigned-label": "no (0)"}
{"mutation-annotation": "Y55A", "assigned-label": "no (0)"}
{"mutation-annotation": "Q76E", "assigned-label": "no (0)"}
{"mutation-annotation": "Y14V", "assigned-label": "yes (1)"}
{"mutation-annotation": "G11K", "assigned-label": "yes (1)"}
{"mutation-annotation": "H33Q", "assigned-label": "no (0)"}
{"mutation-annotation": "F4W", "assigned-label": "no (0)"}
{"mutation-annotation": "H33C", "assigned-label": "yes (1)"}
{"mutation-annotation": "W68L", "assigned-label": "no (0)"}
{"mutation-annotation": "P48N", "assigned-label": "no (0)"}
{"mutation-annotation": "R30N", "assigned-label": "yes (1)"}
{"mutation-annotation": "N49Y", "assigned-label": "no (0)"}
{"mutation-annotation": "F9G", "assigned-label": "no (0)"}
{"mutation-annotation": "S22P", "assigned-label": "no (0)"}
{"mutation-annotation": "M29K", "assigned-label": "yes (1)"}
{"mutation-annotation": "I32W", "assigned-label": "no (0)"}
{"mutation-annotation": "E31F", "assigned-label": "yes (1)"}
{"mutation-annotation": "I23F", "assigned-label": "yes (1)"}
{"mutation-annotation": "V41G", "assigned-label": "yes (1)"}
